Source listed as ChEMBL document CHEMBL1143427.

- System: Beta-lactamase VIM-2 (Pseudomonas aeruginosa)
- Procedure Details: Activity of Pseudomonas aeruginosa VIM2 assessed as drug hydrolysis by spectrophotometry relative to cephaloridine
- Set-up: scale not given: the % may be the effect or the level left
Test Readout: Activity
Kindly format the answer as number then unit.

Consider the reported Activity for these compounds:
[ask] Item CO/N=C(\C(=O)N[C@@H]1C(=O)N2C(C(=O)[O-])=C(C[N+]3(C)CCCC3)CS[C@H]12)c1csc(N)n1 has what recorded Activity?
[reply] 0.32%

[ask] Item Nc1nc(/C(=N/O)C(=O)N[C@@H]2C(=O)N3C(C(=O)O)=C(/C=C4\CCN([C@@H]5CCNC5)C4=O)CS[C@H]23)ns1 has what recorded Activity?
[reply] 13%

[ask] Item CC(C)(O/N=C(\C(=O)N[C@@H]1C(=O)N2C(C(=O)[O-])=C(C[n+]3ccccc3)CS[C@H]12)c1csc(N)n1)C(=O)O has what recorded Activity?
[reply] 0.19%

More entries:
[ask] Item CC1(C)S[C@@H]2[C@H](NC(=O)Cc3ccccc3)C(=O)N2[C@H]1C(=O)O has what recorded Activity?
[reply] 61%
